- assay.conditions: in isobutanol, 313.15 K

compound	solubility (mole fraction)
CSCCC(NC(C)=O)C(=O)O (racemic)	0.0779

---

- assay.conditions: in sec-butanol, 303.15 K

compound	solubility (mole fraction)
CSCCC(NC(C)=O)C(=O)O (racemic)	0.0568

---

- assay.conditions: in n-butanol, 303.15 K
measured.property: solubility (mole fraction)

compound	measured.property	value.reported
CSCCC(NC(C)=O)C(=O)O (racemic)	solubility (mole fraction)	0.0591

---

- assay.conditions: in dichloromethane, 303.15 K
measured.property: solubility (mole fraction)

compound	measured.property	value.reported
CSCCC(NC(C)=O)C(=O)O (racemic)	solubility (mole fraction)	0.00052
